Molecular target: Beta-lactamase VIM-2 (Pseudomonas aeruginosa)
Assay: Inhibition of Pseudomonas aeruginosa 3015473 beta lactamase VIM-2 transfected in negative Escherichia coli SNO3 cells assessed as substrate hydrolysis using nitrocefin as substrate at 250 uM incubated for 20 mins measured every 1 mins for 3 hrs by cell-based microplate spectrophotometry analysis relative to control
The reader will find reported inhibition values listed item by item below.

| molecular-string | inhibition |
| --- | --- |
| COc1ccc(CSCc2nn[nH]c2CNS(=O)(=O)c2ccc(I)cc2)cc1 | 45% |
| Cc1ccc(S(=O)(=O)NCc2[nH]nnc2COC(C)(C)C)cc1 | 60% |
| Cc1ccc(S(=O)(=O)NCc2[nH]nnc2CNC2CCCCC2)cc1 | 82% |
| O=S(=O)(NCc1[nH]nnc1CNC1CCCCC1)c1cc(Cl)ccc1Cl | 94% |
| O=S(=O)(NCc1[nH]nnc1CNC1CCCCC1)c1ccc(I)cc1 | 95% |

Now consider the entry below.
Per the record, CC(C)OCc1nn[nH]c1CNS(=O)(=O)c1ccc(I)cc1 has inhibition of 85%

----------
Molecular target: Beta-lactamase VIM-2 (Pseudomonas aeruginosa, UniProt Q9K2N0)
Assay: Inhibition of beta lactamase VIM-2 in Pseudomonas aeruginosa 3015473 in presence of nitrocefin as reporter substrate measured after 5 mins by microplate spectrophotometry analysis
Conditions: read-out: IC50
pIC50: −log10 of the molar value.
Would you please tag the item YES when its pIC50 is 6 or above, and NO when it is below?

The examples below pair each entry with its known result.
| molecular-string | label-class |
| --- | --- |
| O=S(=O)(NCc1[nH]nnc1CNC1CCCCC1)c1ccc(I)cc1 | YES |
| Cc1ccc(S(=O)(=O)NCc2[nH]nnc2COC(C)(C)C)cc1 | NO |
| NCc1nn[nH]c1CNS(=O)(=O)c1ccccc1 | NO |

Q: Does CC(C)OCc1nn[nH]c1CNS(=O)(=O)c1ccc(I)cc1 have a reported pIC50 of at least 6?
Ans: YES

Q: Does Cc1ccc(S(=O)(=O)NCc2[nH]nnc2CNC23CC4CC(CC(C4)C2)C3)cc1 have a reported pIC50 of at least 6?
Ans: NO

Q: Does COCc1nn[nH]c1CNS(=O)(=O)c1ccc(I)cc1 have a reported pIC50 of at least 6?
Ans: NO

Q: Does O=S(=O)(NCc1[nH]nnc1CNC(c1ccccc1)(c1ccccc1)c1ccccc1)c1ccc(I)cc1 have a reported pIC50 of at least 6?
Ans: NO

----------
Assay: Inhibition of beta lactamase NDM1 in Klebsiella pneumoniae in presence of imipenem as reporter substrate measured after 5 mins by microplate spectrophotometry analysis
Conditions: read-out: IC50
// returns false unless IC50 is strictly below 100 µM, in which case true

| molecular-string | label-class |
| --- | --- |
| O=S(=O)(NCc1[nH]nnc1CNC1CCCCC1)c1ccc(I)cc1 | false |
| Cc1ccc(S(=O)(=O)NCc2[nH]nnc2COC(C)(C)C)cc1 | false |
| O=S(=O)(NCc1[nH]nnc1CNC(c1ccccc1)(c1ccccc1)c1ccccc1)c1ccc(I)cc1 | true |
| CC(=O)OCc1nn[nH]c1CNS(=O)(=O)c1ccc(I)cc1 | false |

Q: Field: below-cutoff. Rule: recorded IC50 strictly less than 100 µM. Subject: Cc1ccc(S(=O)(=O)NCc2[nH]nnc2CNC2CCCCC2)cc1
Ans: false
